System: HepG2
Test: cytotoxicity call (relative viability < 0.9)
Details: 10 µM
The campaign covered roughly 39,000 compounds. About 3,300 (8.5%) were called active. The sample as a whole holds a higher share of actives than the screen did.
The reply should be one of these categories: active, inactive

Examples with answers:
compound=Cl.NCC(=O)c1ccccc1 assigned_class=inactive
compound=CN1[C@@H]2CC[C@H]1C[C@H](O)C2 assigned_class=inactive
compound=NCCc1nc2ccccc2[nH]1 assigned_class=inactive

(Q) Hi team, can someone confirm the assay call for CN(C)C(=O)N[C@H]1CN[C@H]2CCCO[C@H]21 ?
(A) inactive

(Q) Hi team, can someone confirm the assay call for COc1c(C[C@@H](C)O)c2c3c(C[C@@H](C)O)c(OC)c(=O)c4c(O)cc5c(c6c(cc(O)c(c1=O)c62)OCO5)c43 ?
(A) active

(Q) Hi team, can someone confirm the assay call for O=C(NC(=O)c1c(F)cccc1F)Nc1ccc(Cl)cc1 ?
(A) inactive

(Q) Hi team, can someone confirm the assay call for O=C1NC(=S)NC(=O)C1c1ccccc1 ?
(A) inactive

(Q) Hi team, can someone confirm the assay call for Cn1cc(CN2C[C@H]3CNC[C@H]3C2)cn1 ?
(A) inactive

(Q) Hi team, can someone confirm the assay call for CC[C@@H](C(=O)[C@@H](C)[C@@H](O)[C@H](C)[C@@H]1O[C@@H]([C@@H](CC)C(=O)O)CC[C@@H]1C)[C@H]1O[C@]2(C=C[C@@H](O)[C@]3(CC[C@@](C)([C@H]4CC[C@](O)(CC)[C@H](C)O4)O3)O2)[C@H](C)C[C@@H]1C ?
(A) inactive

(Q) Hi team, can someone confirm the assay call for C[C@@H](N)Cc1cccc(O)c1 ?
(A) inactive

(Q) Hi team, can someone confirm the assay call for CC(C(O)c1ccccc1)N(C)C (stereo not given) ?
(A) inactive

(Q) Hi team, can someone confirm the assay call for CC(C)=CCCC1(C)C=Cc2c(O)c3c(c(CC=C(C)C)c2O1)OC12C(=CC4CC1C(C)(C)OC2(CC=C(C)C(=O)O)C4O)C3=O (stereo not given) ?
(A) inactive

(Q) Hi team, can someone confirm the assay call for O=C(NC(=O)c1c(F)cccc1F)Nc1cc(Cl)c(OC(F)(F)C(F)C(F)(F)F)cc1Cl (stereo not given) ?
(A) active

(Q) Hi team, can someone confirm the assay call for COc1cccc(C2(N)CCCC2)c1 ?
(A) inactive

(Q) Hi team, can someone confirm the assay call for COC(=O)[C@@H]1C(=O)NC[C@H]1C(C)C ?
(A) inactive

(Q) Hi team, can someone confirm the assay call for CC(C)=CCC[C@]1(C)C=Cc2c(O)c3c(c(CC=C(C)C)c2O1)O[C@]12[C@H](C[C@@H]4C[C@H]1C(C)(C)O[C@]2(C/C=C(/C)C(=O)O)[C@@H]4O)C3=O ?
(A) inactive

(Q) Hi team, can someone confirm the assay call for CN(CC[C@@H](N)CC(=O)N[C@H]1C=C[C@H](n2ccc(N)nc2=O)O[C@@H]1C(=O)O)C(=N)N ?
(A) inactive

(Q) Hi team, can someone confirm the assay call for CC(C)c1cccc(C(C)C)c1O ?
(A) active

(Q) Hi team, can someone confirm the assay call for CC1OC(OC2C=C3CCC4C(CCC5(C)C(c6ccc(=O)oc6)CCC45O)C3(C)CC2)C(O)C(O)C1O (stereo not given) ?
(A) active

(Q) Hi team, can someone confirm the assay call for C#CCO[C@H]1CN2CCC1CC2 ?
(A) inactive
